src = patent US9963448B2

// values below are reported IC50
Target: hPAD4 (Homo sapiens)
Sequence (Q9UM07 whole entry): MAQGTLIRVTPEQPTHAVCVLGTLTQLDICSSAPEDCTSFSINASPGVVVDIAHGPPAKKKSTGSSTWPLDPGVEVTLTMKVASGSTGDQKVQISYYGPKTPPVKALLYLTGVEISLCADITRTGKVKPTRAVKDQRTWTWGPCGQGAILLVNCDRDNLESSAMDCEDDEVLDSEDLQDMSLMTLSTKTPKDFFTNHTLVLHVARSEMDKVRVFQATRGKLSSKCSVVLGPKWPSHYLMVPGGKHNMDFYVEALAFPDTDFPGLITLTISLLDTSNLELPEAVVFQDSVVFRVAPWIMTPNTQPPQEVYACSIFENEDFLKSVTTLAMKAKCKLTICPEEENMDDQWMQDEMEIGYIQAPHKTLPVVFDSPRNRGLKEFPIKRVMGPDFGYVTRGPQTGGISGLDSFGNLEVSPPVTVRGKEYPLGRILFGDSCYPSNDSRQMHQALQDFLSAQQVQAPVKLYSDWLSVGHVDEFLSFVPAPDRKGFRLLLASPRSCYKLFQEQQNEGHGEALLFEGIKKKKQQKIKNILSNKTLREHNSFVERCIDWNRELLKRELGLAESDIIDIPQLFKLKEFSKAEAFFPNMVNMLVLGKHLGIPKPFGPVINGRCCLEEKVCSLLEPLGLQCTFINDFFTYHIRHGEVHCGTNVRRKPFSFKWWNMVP
Assay: hPAD4 RFMS (RapidFire mass spectrometry) PAD4 inhibition assay;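 further: grade E means pIC50 at most 4 and F means pIC50 4.0 to 5.0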
Type: biochemical
Conditions: hPAD4 enzyme, RFMS readout; pIC50=−log(IC50); read-out: hPAD4 RFMS pIC50 (converted)
recorded endpoint: IC50

compound="CO[C@@H]1CCN(C(=O)c2cc(OC(F)F)c3c(c2)nc(-c2cc4cccnc4n2CC2CC2)n3C)C[C@@H]1N [Compound I-124]" result="10 to 100 µM"
compound="CCn1c(-c2nc3cc(C(=O)N4C[C@H]5CC[C@@H]4[C@@H]5N)cc(OC)c3n2[C@H]2C[C@H](OC)C2)cc2cccnc21 [Compound I-207]" result="1 to 10 µM"
compound="COc1cc(C(=O)N2C[C@H]3CC[C@@H]2[C@@H]3N)cc2nc(-c3cc4cccnc4n3CC3CC3)n([C@H]3C[C@@H](OC)C3)c12 [Compound I-219]" result="< 1 µM"
compound="CCn1c(-c2cc3cccnc3n2CC2CC2)nc2cc(C(=O)N3CCC[C@@H](N)C3)cc(OC)c21 [Compound I-119]" result="< 1 µM"
compound="COc1ccc2cc(-c3nc4cc(C(=O)N5C[C@H](N)CC[C@@H]5C)cc(OC)c4n3C)n(CC3CC3)c2n1 [Compound I-355]" result="< 1 µM"
compound="CCn1c(-c2nc3cc(C(=O)N4C[C@H]5CC[C@@H]4[C@@H]5N)cc(OC)c3n2C[C@H]2C[C@@](C)(O)C2)cc2cccnc21 [Compound I-155]" result="< 1 µM"
